# assay: Multiple-ascending-dose phase 1 study: plasma and urine pharmacokinetics
# Format: in vivo, humans
# test settings: human, plasma, iv, 400 mg, 400 mg IV once weekly x3, day 15, arithmetic mean; read-out: Vz
Numbered stars: 1 amine (or outer) side, 2 acyl side, 3 side chain; on linkers, the order of the positions; unused ones are H or OH. Bridge positions count the residues as written; N and C are the ends. Square brackets hold non-standard residues; d marks the D form. Peptide text beside a SMILES is read from it. * marks the point of attachment. Orn(4R-OH,5R-OCH2CH2NMe3+) = C[N+](C)(C)CCO[C@@H](N[*:3])[C@H](O)C[C@H](N[*:1])C(=O)[*:2]; pTerphenylCO(4''-OnC5H11) = CCCCCOc1ccc(-c2ccc(-c3ccc(C(=O)*)cc3)cc2)cc1; hTyr(3S-OH,4S-OH) = N[C@H](C(=O)O)[C@H](O)[C@@H](O)c1ccc(O)cc1; Pro(3S-OH,4S-Me) = C[C@H]1CN[C@H](C(=O)O)[C@H]1O; Hyp = O=C(O)[C@@H]1C[C@@H](O)CN1
property name: Vd (L)
Please reply with the bare figure in L and do not write the unit itself.

Value lookup for Vd; key = CCCCCOc1ccc(-c2ccc(-c3ccc(C(=O)N[C@H]4C[C@@H](O)[C@@H](OCC[N+](C)(C)C)NC(=O)[C@@H]5[C@@H](O)[C@@H](C)CN5C(=O)[C@H]([C@@H](C)O)NC(=O)[C@H]([C@H](O)[C@@H](O)c5ccc(O)cc5)NC(=O)[C@@H]5C[C@@H](O)CN5C(=O)[C@H]([C@@H](C)O)NC4=O)cc3)cc2)cc1 [CD101] ({pTerphenylCO(4''-OnC5H11)}-[Orn(4R-OH,5R-OCH2CH2NMe3+)]T[Hyp][hTyr(3S-OH,4S-OH)]T[Pro(3S-OH,4S-Me)]; lactam 1-C)
27.9
